Target: human V1b receptors (Homo sapiens)
Construct: expressed in transfected cells; preparation V1b-3H2
Sequence (P47901 whole entry): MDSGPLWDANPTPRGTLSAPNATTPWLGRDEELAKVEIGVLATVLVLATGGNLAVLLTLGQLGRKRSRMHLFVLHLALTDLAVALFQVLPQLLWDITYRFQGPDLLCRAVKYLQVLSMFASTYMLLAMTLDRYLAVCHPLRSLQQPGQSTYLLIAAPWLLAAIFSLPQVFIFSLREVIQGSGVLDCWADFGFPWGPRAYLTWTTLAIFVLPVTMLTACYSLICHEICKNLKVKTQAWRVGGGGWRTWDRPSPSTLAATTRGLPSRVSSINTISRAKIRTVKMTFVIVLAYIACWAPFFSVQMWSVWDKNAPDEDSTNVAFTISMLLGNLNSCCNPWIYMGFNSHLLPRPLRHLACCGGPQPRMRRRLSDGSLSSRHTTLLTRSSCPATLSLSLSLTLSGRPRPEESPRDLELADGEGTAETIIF
Assay: Vasopressin V1b receptor binding assay
Details: membranes from CHO-K1 cells with human V1b receptors, 3H-AVP displacement; read-out: V1b Ki
# maps each entry to its Ki

> print(dat)
                                   compound  reported
1  CCOc1ccccc1C1(OC(=O)N2CCN(c3nccs3)CC2)C(=O)N(S(=O)(=O)c2cccc3cccnc23)c2ccc(C#N)cc21 (centres unmarked)   < 50 nM
2  CCOc1ccccc1C1(OC(=O)N2CCN(c3ncccn3)CC2)C(=O)N(S(=O)(=O)c2cccc3cccnc23)c2ccc(C#N)cc21 (centres unmarked)   < 50 nM
3  CCOc1ccccc1C1(NC(=O)N2CCN(c3ccncc3)CC2)C(=O)N(S(=O)(=O)c2cccc3cccnc23)c2ccc(C#N)cc21 (centres unmarked)   < 50 nM

What does the data say about its Ki? Entry: CCOc1ccccc1C1(OC(=O)N2CCN(c3ccccn3)CC2)C(=O)N(S(=O)(=O)c2cccc3cccnc23)c2ccc(C#N)cc21 (centres unmarked)
< 50 nM

Another compound: CCOc1ccccc1C1(OC(=O)N2CCN(c3cnccn3)CC2)C(=O)N(S(=O)(=O)c2cccc3cccnc23)c2ccc(C#N)cc21 (centres unmarked)
50 to 500 nM

Would you mind doing CCOc1ccccc1C1(OC(=O)N2CCN(c3ccncc3)CC2)C(=O)N(S(=O)(=O)c2ccsc2)c2ccc(C#N)cc21 (centres unmarked) as well?
< 50 nM

What would you report for CCOc1ccccc1C1(NC(=O)N2CCN(c3ccncc3)CC2)C(=O)N(S(=O)(=O)c2ccsc2)c2ccc(C#N)cc21 (centres unmarked) ?
< 50 nM

Another: CCOc1ccccc1C1(OC(=O)N2CCN(c3ccc(C#N)cn3)CC2)C(=O)N(S(=O)(=O)c2cccc3cccnc23)c2ccc(C#N)cc21 (centres unmarked)
< 50 nM
